- METHOD NOTES: Cytotoxicity against MDCK2 cells assessed as cell viability at 30 uM after 48 hrs by MTT assay
- Format: cell-based, Canis lupus familiaris, MDCK-II
- CONDITION DETAILS: dog, read-out: Activity
MEASUREMENT LABEL: viability at 48 h, 30 µM (%)
Give just the number in %; leave the unit off.

The cases that follow already have their viability at 48 h, 30 µM on record.
>  <COMPOUND>
COc1ccc(-n2nnnc2SCc2cc([N+](=O)[O-])cc([N+](=O)[O-])c2)cc1

>  <MEASUREMENT LABEL>
viability at 48 h, 30 µM

>  <UNIT NAME>
%

>  <READOUT VALUE>
123

$$$$
>  <COMPOUND>
O=[N+]([O-])c1cc(CSc2nnnn2-c2ccc(Cl)c(Cl)c2)cc([N+](=O)[O-])c1

>  <MEASUREMENT LABEL>
viability at 48 h, 30 µM

>  <UNIT NAME>
%

>  <READOUT VALUE>
53

$$$$

Q: Look up viability at 48 h, 30 µM: COc1ccc(-n2nnnc2[Se]Cc2cc([N+](=O)[O-])cc([N+](=O)[O-])c2)cc1
Result: 9

Q: Look up viability at 48 h, 30 µM: O=[N+]([O-])c1cc(C[Se]c2nnnn2C2CCCCC2)cc([N+](=O)[O-])c1
Result: 7

Q: Look up viability at 48 h, 30 µM: O=[N+]([O-])c1ccc(CSc2nnnn2C2CCCCC2)c([N+](=O)[O-])c1
Result: 28

Q: Look up viability at 48 h, 30 µM: O=[N+]([O-])c1cc(C[S+]([O-])c2nnnn2C2CCCCC2)cc([N+](=O)[O-])c1 (configuration not stated)
Result: 52

Q: Look up viability at 48 h, 30 µM: O=[N+]([O-])c1cc(CS(=O)(=O)c2nnnn2C2CCCCC2)cc([N+](=O)[O-])c1
Result: 18
